Data origin, for the record: patent EP3381906A1

Test system: HT1080 (human fibrosarcoma)
Assay: SRB Cell Cytotoxicity Assay
Format: cell-based
Conditions: HT-1080, HT1080, treated for 72h, read-out: Concentration of test compounds at which the cell growth is inhibited by 50 % HT1080
pEC50: −log10 of the molar value.
What pEC50 was measured for each of the following?

Prompt line: Can you share its pEC50? I mean this molecule: O=C(O)/C=C/C(=O)Nc1ccc(Sc2ccc(Oc3ccc(Sc4ccc(NC(=O)/C=C/C(=O)O)cc4)cc3)cc2)cc1 [SST0806]
Response line: < 5.60

Prompt line: Can you share its pEC50? I mean this molecule: O=C(Nc1cccc(-c2nc3ccccc3[nH]2)c1)c1ccc(Oc2ccc(C(=O)Nc3cccc(-c4nc5ccccc5[nH]4)c3)cc2)cc1 [SST0656]
Response line: < 5.60

Prompt line: Can you share its pEC50? I mean this molecule: COc1cc(N=Nc2cc(S(=O)(=O)O)cc3cc(S(=O)(=O)O)cc(O)c23)c(C)cc1NC(=O)Nc1cc(C)c(N=Nc2cc(S(=O)(=O)O)cc3cc(S(=O)(=O)O)cc(O)c23)cc1OC [SST0597]
Response line: < 5.00

Prompt line: Can you share its pEC50? I mean this molecule: O=C(O)c1ccc(Oc2cccc(N3C(=O)c4ccc(Oc5ccc6c(c5)C(=O)N(c5cccc(Oc7ccc(C(=O)O)c(C(=O)O)c7)c5)C6=O)cc4C3=O)c2)cc1C(=O)O [SST0853]
Response line: < 5.60

Prompt line: Can you share its pEC50? I mean this molecule: Cc1ccc(C(=O)Nc2ccc(S(=O)(=O)O)c3cc(S(=O)(=O)O)cc(S(=O)(=O)O)c23)cc1NC(=O)c1cccc(NC(=O)Nc2cccc(C(=O)Nc3cc(C(=O)Nc4ccc(S(=O)(=O)O)c5cc(S(=O)(=O)O)cc(S(=O)(=O)O)c45)ccc3C)c2)c1 [Suramin, reference compound]
Response line: < 5.00

Prompt line: Can you share its pEC50? I mean this molecule: O=C(Nc1ccc2c(O)c(N=Nc3ccc(N=Nc4ccc(S(=O)(=O)O)cc4)cc3S(=O)(=O)O)c(S(=O)(=O)O)cc2c1)Nc1ccc2c(O)c(N=Nc3ccc(N=Nc4ccc(S(=O)(=O)O)cc4)cc3S(=O)(=O)O)c(S(=O)(=O)O)cc2c1 [SST0595]
Response line: < 5.00

Prompt line: Can you share its pEC50? I mean this molecule: CC(C)(c1ccc(Oc2ccc3c(c2)C(=O)N(c2cccc(C(=O)O)c2)C3=O)cc1)c1ccc(Oc2ccc3c(c2)C(=O)N(c2cccc(C(=O)O)c2)C3=O)cc1 [SST0851]
Response line: < 5.60

* * *

Molecular target: heparanase (Homo sapiens, UniProt Q9Y251)
Construct: 100 µM fondaparinux, 2.5 nM heparanase and serial dilutions of test compounds
Sequence (Q9Y251 158-543 limits assumed): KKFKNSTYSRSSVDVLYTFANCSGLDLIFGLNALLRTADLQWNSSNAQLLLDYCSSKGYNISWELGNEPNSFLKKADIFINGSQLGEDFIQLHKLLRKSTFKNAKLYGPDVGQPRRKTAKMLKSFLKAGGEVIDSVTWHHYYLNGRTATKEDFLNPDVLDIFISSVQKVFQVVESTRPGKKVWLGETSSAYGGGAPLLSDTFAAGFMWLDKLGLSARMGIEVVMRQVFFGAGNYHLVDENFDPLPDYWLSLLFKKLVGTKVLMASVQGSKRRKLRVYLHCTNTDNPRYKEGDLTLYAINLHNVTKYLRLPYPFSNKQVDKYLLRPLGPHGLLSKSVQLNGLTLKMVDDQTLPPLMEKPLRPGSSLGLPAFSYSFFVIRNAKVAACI
Sequence (Q9Y251 36-109 limits assumed): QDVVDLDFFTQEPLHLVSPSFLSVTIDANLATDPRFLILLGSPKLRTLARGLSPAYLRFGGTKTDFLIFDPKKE
Assay: AGA*IA assay: heparanase-catalyzed fondaparinux cleavage, colorimetric (WST-1)
Type: biochemical
Details: 2.5 nM heparanase, 100 µM fondaparinux, pH 5.0, 3 h at 37°C; class symbols; read-out: AGAIA assay (IC50)
pIC50: −log10 of the molar value.
What pIC50 was measured for each of the following?

Prompt line: Can you share its pIC50? I mean this molecule: `O=C(O)c1ccc2c(c1)C(=O)N(c1ccc(Oc3ccc(Oc4ccc(N5C(=O)c6ccc(C(=O)O)cc6C5=O)cc4)cc3)cc1)C2=O`
Response line: 5.00 to 6.00

Prompt line: Can you share its pIC50? I mean this molecule: `O=C(Nc1cccc(Oc2ccc(S(=O)(=O)c3ccc(Oc4cccc(NC(=O)c5ccc(F)cc5)c4)cc3)cc2)c1)c1ccc(F)cc1`
Response line: 5.00 to 6.00

Prompt line: Can you share its pIC50? I mean this molecule: `O=C(Nc1ccccc1C(=O)O)c1ccc2c(c1)C(=O)N(c1ccc(Oc3ccc(N4C(=O)c5ccc(C(=O)Nc6ccccc6C(=O)O)cc5C4=O)cc3)cc1)C2=O`
Response line: 5.00 to 6.00

Prompt line: Can you share its pIC50? I mean this molecule: `O=C(Nc1cccc(-c2nc3ccccc3[nH]2)c1)c1ccc(Oc2ccc(C(=O)Nc3cccc(-c4nc5ccccc5[nH]4)c3)cc2)cc1`
Response line: 6.31 to 7.30

Prompt line: Can you share its pIC50? I mean this molecule: `CC(C)(c1ccc(Oc2ccc3c(c2)C(=O)N(c2ccc(C(=O)O)cc2)C3=O)cc1)c1ccc(Oc2ccc3c(c2)C(=O)N(c2ccc(C(=O)O)cc2)C3=O)cc1`
Response line: 5.00 to 6.00

Prompt line: Can you share its pIC50? I mean this molecule: `O=C(O)c1cc(NC(=O)c2ccc(Oc3ccc(C(=O)Nc4cc(C(=O)O)cc(C(=O)O)c4)cc3)cc2)cc(C(=O)O)c1`
Response line: 5.00 to 6.00

* * *

Target: heparanase (Homo sapiens)
Construct: 100 µM fondaparinux, 2.5 nM heparanase and serial dilutions of test compounds
Sequence (Q9Y251 158-543 limits assumed): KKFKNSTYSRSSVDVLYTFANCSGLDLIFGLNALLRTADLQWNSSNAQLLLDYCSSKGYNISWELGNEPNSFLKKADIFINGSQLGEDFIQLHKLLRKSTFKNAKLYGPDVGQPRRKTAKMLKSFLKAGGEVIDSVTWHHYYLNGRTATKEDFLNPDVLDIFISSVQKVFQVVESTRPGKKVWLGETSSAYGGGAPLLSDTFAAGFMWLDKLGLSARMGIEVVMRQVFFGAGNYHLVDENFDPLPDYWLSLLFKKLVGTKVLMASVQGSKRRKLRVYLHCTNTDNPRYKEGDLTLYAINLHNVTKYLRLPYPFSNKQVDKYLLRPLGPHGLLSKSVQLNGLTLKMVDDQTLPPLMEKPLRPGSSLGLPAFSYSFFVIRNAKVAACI
Sequence (Q9Y251 36-109 limits assumed): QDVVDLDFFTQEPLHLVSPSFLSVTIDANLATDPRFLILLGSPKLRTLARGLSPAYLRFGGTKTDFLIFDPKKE
Assay: AGA*IA assay: heparanase-catalyzed fondaparinux cleavage, colorimetric (WST-1)
Format: biochemical
Settings: 2.5 nM heparanase, 100 µM fondaparinux, pH 5.0, 3 h at 37°C; class symbols; read-out: AGAIA assay (IC50)
Observed property: IC50

Prompt line: Can you share its IC50? I mean this compound: O=C(O)c1ccc(Oc2cccc(N3C(=O)c4ccc(Oc5ccc6c(c5)C(=O)N(c5cccc(Oc7ccc(C(=O)O)c(C(=O)O)c7)c5)C6=O)cc4C3=O)c2)cc1C(=O)O [SST0853]
Response line: 500 to 990 nM

Prompt line: Can you share its IC50? I mean this compound: COc1cc(N=Nc2cc(S(=O)(=O)O)cc3cc(S(=O)(=O)O)cc(O)c23)c(C)cc1NC(=O)Nc1cc(C)c(N=Nc2cc(S(=O)(=O)O)cc3cc(S(=O)(=O)O)cc(O)c23)cc1OC [SST0597]
Response line: 50 to 490 nM

Prompt line: Can you share its IC50? I mean this compound: O=C(Nc1nc(-c2ccc3ccccc3c2)cs1)c1ccc(Oc2ccc(C(=O)Nc3nc(-c4ccc5ccccc5c4)cs3)cc2)cc1 [SST0803]
Response line: 1000 to 10000 nM

Prompt line: Can you share its IC50? I mean this compound: CC(C)(c1ccc(Oc2ccc3c(c2)C(=O)N(c2cccc(C(=O)O)c2)C3=O)cc1)c1ccc(Oc2ccc3c(c2)C(=O)N(c2cccc(C(=O)O)c2)C3=O)cc1 [SST0851]
Response line: 500 to 990 nM

Prompt line: Can you share its IC50? I mean this compound: O=C(Nc1ccc(Br)cc1C(=O)O)c1ccc(Oc2ccc(C(=O)Nc3ccc(Br)cc3C(=O)O)cc2)cc1 [SST0604]
Response line: 1000 to 10000 nM

Prompt line: Can you share its IC50? I mean this compound: Nc1ccc2cc(S(=O)(=O)O)cc(O)c2c1N=Nc1ccc(NC(=O)Nc2ccc(N=Nc3c(N)ccc4cc(S(=O)(=O)O)cc(O)c34)c(S(=O)(=O)O)c2)cc1S(=O)(=O)O [SST0753]
Response line: 1000 to 10000 nM

Prompt line: Can you share its IC50? I mean this compound: O=C(O)c1ccc(N2C(=O)c3ccc(Oc4cccc(Oc5ccc6c(c5)C(=O)N(c5ccc(C(=O)O)cc5)C6=O)c4)cc3C2=O)cc1 [SST0860]
Response line: 1000 to 10000 nM

Prompt line: Can you share its IC50? I mean this compound: O=C(Nc1nc(-c2ccc(F)cc2)cs1)c1ccc(Oc2ccc(C(=O)Nc3nc(-c4ccc(F)cc4)cs3)cc2)cc1 [SST0815]
Response line: 1000 to 10000 nM

Prompt line: Can you share its IC50? I mean this compound: O=C(Nc1ccc(O)cc1C(=O)O)c1ccc(Oc2ccc(C(=O)Nc3ccc(O)cc3C(=O)O)cc2)cc1 [SST0810]
Response line: 1000 to 10000 nM

Prompt line: Can you share its IC50? I mean this compound: O=C(Nc1ccccc1C(=O)O)c1ccc2c(c1)C(=O)N(c1ccc(S(=O)(=O)c3ccc(N4C(=O)c5ccc(C(=O)Nc6ccccc6C(=O)O)cc5C4=O)cc3)cc1)C2=O [SST0602]
Response line: 1000 to 10000 nM

Prompt line: Can you share its IC50? I mean this compound: O=C(Nc1cccc(-c2nc3ccccc3s2)c1)c1ccc(Oc2ccc(C(=O)Nc3cccc(-c4nc5ccccc5s4)c3)cc2)cc1 [SST0802]
Response line: 1000 to 10000 nM

Prompt line: Can you share its IC50? I mean this compound: O=C(O)c1ccccc1N1C(=O)c2ccc(Oc3ccc(Oc4ccc5c(c4)C(=O)N(c4ccccc4C(=O)O)C5=O)cc3)cc2C1=O [SST0855]
Response line: 1000 to 10000 nM
